Test system: Gp Ia: S. aureus Smith A9537, A9497, Terajima, A9534, A9601
Details: Staphylococcus aureus, read-out: Minimum Inhibitory Concentration Gp Ia, Mueller-Hinton agar; run 1; average of five organisms
# reported MIC; entries follow

# smilesInput, MIC (µg/mL)
measured = [
    ("C/C=C\\C1=C(C(=O)O)N2C(=O)[C@@H](NC(=O)[C@H](N)c3ccc(O)cc3)[C@H]2SC1", 0.23),
    ("C/C=C\\C1=C(C(=O)O)N2C(=O)[C@@H](NC(=O)[C@H](N)c3ccccc3)[C@H]2SC1", 0.23),
    ("CC1=C(C(=O)O)N2C(=O)[C@@H](NC(=O)[C@H](N)c3ccc(O)cc3)[C@H]2SC1", 1.2),
    ("CC/C=C\\C1=C(C(=O)[O-])N2C(=O)[C@@H](NC(=O)[C@H](N)c3ccc(O)cc3)[C@H]2SC1.[Na+]", 0.4),
]

----------
Test system: S. aureus BX-1633
Experiment: Protective dose PD50, mice infected with lethal inoculum, oral treatment, S. aureus BX-1633
Assay type: in vivo
Details: Staphylococcus aureus, BX1633, 120 h
parameter: ED50 (mg/kg)

# compound, measurementTarget, parameter, testValue
records = [
    ("C/C=C\\C1=C(C(=O)O)N2C(=O)[C@@H](NC(=O)[C@H](N)c3ccc(O)cc3)[C@H]2SC1 [Compound 9]", "S. aureus BX-1633", "ED50", 2.2),
    ("N[C@@H](C(=O)N[C@@H]1C(=O)N2C(C(=O)O)=C(Cl)CS[C@H]12)c1ccccc1 [Cefaclor]", "S. aureus BX-1633", "ED50", 2.2),
    ("CC1=C(C(=O)O)N2C(=O)[C@@H](NC(=O)[C@H](N)c3ccc(O)cc3)[C@H]2SC1 [Cefadroxil]", "S. aureus BX-1633", "ED50", 7.2),
    ("CC1=C(C(=O)O)N2C(=O)[C@@H](NC(=O)[C@H](N)c3ccccc3)[C@H]2SC1 [Cephalexin]", "S. aureus BX-1633", "ED50", 17),
]

----------
// ED50 lookup, one value per entry
System: S. aureus Smith
Experiment: Protective dose, mice infected with lethal inoculum, oral treatment, S. aureus Smith
Type: in vivo
Conditions: Staphylococcus aureus, po, 120 h, oral; 50% survival for 5 days; groups of 5 mice; read-out: Protective dose (PD50), S. aureus Smith

# compound, ED50 / mg/kg
records = [
    ("C/C=C\\C1=C(C(=O)O)N2C(=O)[C@@H](NC(=O)[C@H](N)c3ccc(O)c(O)c3)[C@H]2SC1 [Compound 37]", 0.13),
    ("C/C=C/C1=C(C(=O)O)N2C(=O)[C@@H](NC(=O)[C@H](N)c3ccc(O)cc3)[C@H]2SC1 [Compound 8]", 0.2),
    ("C/C=C\\C1=C(C(=O)O)N2C(=O)[C@@H](NC(=O)[C@H](N)c3ccc(O)c(Cl)c3)[C@H]2SC1 [Compound 32]", 0.17),
    ("C=CC1=C(C(=O)O)N2C(=O)[C@@H](NC(=O)[C@H](N)c3ccc(O)cc3)[C@H]2SC1 [Compound 11]", 0.18),
    ("C/C=C\\C1=C(C(=O)O)N2C(=O)[C@@H](NC(=O)[C@H](N)c3ccc(O)cc3)[C@H]2SC1 [Compound 9]", 0.14),
    ("C/C=C\\C1=C(C(=O)O)N2C(=O)[C@@H](NC(=O)[C@H](N)c3ccccc3)[C@H]2SC1 [Compound 24]", 0.18),
]
